System: K-562 leukemia
Assay: NCI tumour cell line growth inhibition, 48 h
TGI by entry:

compound: COc1cc(NC(C)CCCNC(C)C)c2ncccc2c1OC (configuration not stated)
TGI: > 100 µM
//
compound: Cc1cc2nnc(C(N)=O)c(N)c2cc1C
TGI: > 100 µM
//
compound: COc1ccc2oc(C(=O)N3CC(CCl)c4ccc(N)cc43)cc2c1 (configuration not stated)
TGI: > 63.4 µM
//
compound: O=C(NC1(C(=O)O)CCCC1)c1ccccc1
TGI: > 100 µM
//
compound: N#Cc1c(-c2ccccc2)cc(Nc2ccc(Cl)cc2)n2c1nc1ccccc12
TGI: 8.21 µM
//
compound: Cc1ccccc1N=Nc1c(-c2ccccc2)nn(C(=O)CC(=O)Nc2cccc(Cl)c2)c1-c1ccccc1
TGI: > 31.6 µM
//
compound: O/N=C\C(=Nc1ccc(Cc2ccc(N=C(/C=N\O)NO)cc2)cc1)NO
TGI: > 100 µM
//
compound: O=c1[nH]nc(-c2ccc(F)cc2)cc1-c1ccccc1
TGI: > 100 µM
//
compound: Cc1ccc(C(=O)N/N=C2/C(=O)c3c4ccccc4cc4cccc2c34)cc1
TGI: > 100 µM
//
compound: OC(COc1ccccc1)CN1CCCCC1 (configuration not stated)
TGI: > 100 µM
//
compound: Nc1ccccc1C(=O)NC(=O)Nc1ccc(Oc2ncc(Br)cn2)c(Cl)c1
TGI: 18 µM
//
compound: CC1=C(C#N)C(/C=C(\Cl)c2ccc(F)cc2)C(C#N)=C(C)N1
TGI: > 100 µM

* * *

Test system: SN12C renal
Experiment: NCI tumour cell line growth inhibition, 48 h
recordedEndpoint: TGI

compound: CC1=C(C(=O)Nc2ccccc2)C(c2cc(Cl)cc(Cl)c2)C(C(=O)Nc2ccccc2)=C(C)N1
assayResult: 25.3 µM
--
compound: Cn1cncc1-c1c(F)cncc1NC(=O)c1c(N)nn2cc(F)cnc12
assayResult: 37.6 µM
--
compound: O=P1(Cc2ccccc2)c2ccccc2-c2ccccc21
assayResult: > 78.8 µM
--
compound: CC(C)(C)c1nc(-c2cccc(NS(=O)(=O)c3c(F)cccc3F)c2F)c(-c2ccnc(N)n2)s1
assayResult: > 100 µM
--
compound: CC(CC[C@@]1(O)OC2C[C@H]3[C@@H]4CC[C@H]5CC(OC6OC(CO)C(OC7OC(CO)C(O)C(OC8OCC(O)C(O)C8O)C7OC7OC(CO)C(O)C(O)C7O)C(O)C6O)[C@H](O)CC5(C)[C@H]4CCC3(C)C2[C@@H]1C)COC1OC(CO)C(O)C(O)C1O (some centres undefined)
assayResult: 19.6 µM
--
compound: CC(C)C(=S)N(C)O
assayResult: > 100 µM
--
compound: COc1ccc(CCN2C(=O)CC34C=CC(CC3C2=O)O4)cc1OC (centres undefined)
assayResult: > 100 µM
--
compound: O=c1[nH]nc(-c2ccc(F)cc2)cc1-c1ccccc1
assayResult: > 100 µM
--
compound: Cc1cc2nnc(C(N)=O)c(N)c2cc1C
assayResult: > 100 µM

* * *

TGI by entry:
Tested on: UACC-257 melanoma
Assay: NCI tumour cell line growth inhibition, 48 h

compound: C#C[C@]1(O)CC[C@H]2[C@@H]3CCC4=C/C(=N/OC(=O)c5cccc6c(=O)c7ccccc7[nH]c56)CCC4[C@H]3CC[C@@]21CC (some centres not stated)
TGI: > 88.1 µM
--
compound: COC[C@H]1C(=O)NCC(=O)N2N=CCC[C@H]2C(=O)N(O)[C@H](C)C(=O)O[C@@H](C(C)C)[C@H](NC(=O)[C@@](C)(O)[C@]2(O)CC[C@@H](CC(C)C)[C@H](C)O2)C(=O)N2NCCC[C@@H]2C(=O)N1O
TGI: 0.0328 µM
--
compound: CC[C@@H](O)C[C@H]1CCC[C@@]2(C[C@@H]3OC(=O)/C=C/[C@@](C)(O)[C@@H](O)[C@H](C)[C@@H](O)[C@H](OC4CCC(N(C)C)C(C)O4)[C@@H](O)[C@](C)(O)CCCCC/C=C/[C@@H]4CC(C)(C)O[C@@]4(O)C[C@H](O2)[C@H]3C)O1 (some centres not stated)
TGI: 4.82 µM
--
compound: C/C(O)=C(\N=O)C(=O)NCc1ccccc1
TGI: > 100 µM
--
compound: CC(=O)NC1=C(N)C(=O)c2ccccc2C1=O
TGI: > 100 µM
--
compound: C=CCN(CCN(CC=C)S(=O)(=O)c1ccc(C)cc1)S(=O)(=O)c1ccc(C)cc1
TGI: > 100 µM
--
compound: NCCNC(=O)CN(CC(=O)O)C1CCCCC1N(CC(=O)O)CC(=O)O (configuration not stated)
TGI: > 100 µM
--
compound: COC(=O)/C(=C/c1ccc(OC)cc1)C(C(=O)O)=C1CCCCC1
TGI: > 100 µM
--
compound: COc1ccc(/C=C/C(=O)Oc2ccccc2OC)cc1
TGI: > 100 µM
--
compound: O=c1[nH]nc(-c2ccc(F)cc2)cc1-c1ccccc1
TGI: > 100 µM
--
compound: CC1=C(C#N)C(/C=C(\Cl)c2ccc(F)cc2)C(C#N)=C(C)N1
TGI: > 100 µM
--
compound: C=CC[C@]1(C2=NC(C)(C)CO2)c2ccccc2-c2ccccc2[C@H]1C(C)=O
TGI: 24 µM
--
compound: C=C1C(=O)O[C@H]2[C@H]1CC/C(COC(=O)NCCc1cccc(OC)c1)=C\CC[C@@]1(C)O[C@@H]21
TGI: 3.4 µM
--
compound: O=C(Nc1ccc2c(c1)OCCO2)C(=O)c1c[nH]c2ccccc12
TGI: > 100 µM
--
compound: COc1cc(OC)c(OC)cc1/C=C/c1cc[n+](C)c2ccccc12
TGI: 50.9 µM
--
compound: CC(C)=C[C@@H]1O[C@H](O)[C@@H]([C@H]2CC[C@@]3(C)[C@@H]4CC[C@H]5C(C)(C)C(=O)CC[C@@]56C[C@@]46CC[C@]23C)[C@@H]1O
TGI: 31.6 µM
--
compound: CC1(C)C(=O)C(=Cc2ccco2)C1=O
TGI: > 100 µM

* * *

System: UACC-257 melanoma
Test: NCI tumour cell line growth inhibition, 48 h

molecule: COC(=O)C1(O)C(c2ccccc2)NC2(C)CCCC21 (stereo unspecified)
experimentalTarget: UACC-257 melanoma
TGI: > 100 µM

molecule: COc1ccc(-c2nsc3c2NC(=O)CC3c2cccc(Cl)c2)cc1 (stereo unspecified)
experimentalTarget: UACC-257 melanoma
TGI: > 100 µM

molecule: Cc1ccc(/S(Cc2ccccc2)=N\S(=O)(=O)c2ccc(C)cc2)cc1 (stereo unspecified)
experimentalTarget: UACC-257 melanoma
TGI: > 100 µM

molecule: CCOc1ccc(N=Cc2ccnc3ccccc23)cc1
experimentalTarget: UACC-257 melanoma
TGI: > 100 µM

molecule: O=C(C1OC1c1cccc([N+](=O)[O-])c1)C12CC3CC(CC(C3)C1)C2 (stereo unspecified)
experimentalTarget: UACC-257 melanoma
TGI: 25.4 µM

molecule: OC12c3ccccc3C1CCCCCC21OCCCO1 (stereo unspecified)
experimentalTarget: UACC-257 melanoma
TGI: > 100 µM

* * *

log10 of TGI by entry:
Test system: A498 renal
Test: NCI tumour cell line growth inhibition, 48 h
recordedEndpoint: log10 of TGI (log10 of the value in µM)

compound: CC[C@@H](O)C[C@H]1CCC[C@@]2(C[C@@H]3OC(=O)/C=C/[C@@](C)(O)[C@@H](O)[C@H](C)[C@@H](O)[C@H](OC4CCC(N(C)C)C(C)O4)[C@@H](O)[C@](C)(O)CCCCC/C=C/[C@@H]4CC(C)(C)O[C@@]4(O)C[C@H](O2)[C@H]3C)O1 (stereo not given in full)
log10 of TGI: 1.76
//
compound: Cc1ccc(C2C(Cl)C(=O)N2NC(=O)c2ccc(N)cc2)cc1 (stereo not given)
log10 of TGI: 1.75
//
compound: CN1CCN(CCCOc2cccc3nc(Nc4ccc(F)c(F)c4)ccc23)CC1
log10 of TGI: 1.06
//
compound: COc1ccc(/C(Cl)=C(\C=O)c2ccc(Cl)cc2)cc1OC
log10 of TGI: 1.73
//
compound: COc1ccc2[nH]c(C(=O)OCc3ccc4cccc(O)c4n3)cc2c1
log10 of TGI: 0.75
//
compound: COc1ccc2oc(C(=O)N3CC(CCl)c4ccc(N)cc43)cc2c1 (stereo not given)
log10 of TGI: -0.06
//
compound: Nc1ccccc1C(=O)NC(=O)Nc1ccc(Oc2ncc(Br)cn2)c(Cl)c1
log10 of TGI: 0.08
//
compound: N#Cc1c(-c2ccc([N+](=O)[O-])cc2)cc(-c2ccc(Nc3ccnc4cc(Cl)ccc34)cc2)nc1N
log10 of TGI: 1.71
//
compound: O=C1C=C(Nc2ccc(S(=O)(=O)Nc3ncccn3)cc2)c2ccccc2C1=O
log10 of TGI: 1.84
//
compound: CC(C)=C1CCC(CN2CCOCC2)C1=O (stereo not given)
log10 of TGI: 1.72
//
compound: NC(CSC(c1ccccc1)(c1ccccc1)c1ccc(F)cc1)C(=O)O (stereo not given)
log10 of TGI: 1.53
//
compound: O=C([CH-]C(=O)c1ccccc1)c1ccccc1.O=C([CH-]C(=O)c1ccccc1)c1ccccc1.O=C([CH-]C(=O)c1ccccc1)c1ccccc1.[Cl-].[Zr+4]
log10 of TGI: 1.77
